Reference for the values: ChEMBL document CHEMBL3414508

Form field: MIC (one value per entry).
Test system: Bacillus spizizenii
TEST: Antibacterial activity against Bacillus subtilis ATCC 6633 by broth microdilution method
Type: functional

Some solved cases for reference:
- COc1c(N[C@H]2C(=O)N[C@@H]3Cc4ccc(c(Cl)c4)Oc4cc5cc(c4O)Oc4ccc(cc4Cl)[C@@H](O)[C@@H]4NC(=O)[C@H](NC(=O)[C@@H]5NC(=O)[C@@H](NC3=O)c3cc(O)cc(c3)Oc3cc2ccc3O)c2ccc(O)c(c2)-c2c(O)cc(O)cc2[C@@H](C(=O)O)NC4=O)c(=O)c1=O: 16 µg/mL
- O=C1N[C@H]2C(=O)N[C@H]3C(=O)N[C@H](C(=O)N[C@H](C(=O)O)c4cc(O)cc(O)c4-c4cc3ccc4O)[C@H](O)c3ccc(c(Cl)c3)Oc3cc2cc(c3O)Oc2ccc(cc2Cl)C[C@H]2NC(=O)[C@H](Nc3c(NCc4ccc(-c5ccccc5)cc4)c(=O)c3=O)c3ccc(O)c(c3)Oc3cc(O)cc(c3)[C@@H]1NC2=O: 8 µg/mL
- COC(=O)[C@H]1NC(=O)[C@H]2NC(=O)[C@H](NC(=O)[C@@H]3NC(=O)[C@H]4NC(=O)[C@@H](Cc5ccc(c(Cl)c5)Oc5cc3cc(c5O)Oc3ccc(cc3Cl)[C@H]2O)NC(=O)[C@H](Nc2c(NCc3ccc(-c5ccccc5)cc3)c(=O)c2=O)c2ccc(O)c(c2)Oc2cc(O)cc4c2)c2ccc(O)c(c2)-c2c(O)cc(O)cc21: 256 µg/mL

Answer with the recorded MIC for the compound listed here: `COC(=O)[C@H]1NC(=O)[C@H]2NC(=O)[C@H](NC(=O)[C@@H]3NC(=O)[C@H]4NC(=O)[C@H](NC(=O)[C@H](Nc5c(NCc6ccc(-c7ccccc7)cc6)c(=O)c5=O)c5ccc(O)c(c5)Oc5cc4cc(O)c5C)[C@H](O)c4ccc(cc4)Oc4cc3cc(c4O)Oc3ccc(cc3)[C@H]2O)c2ccc(O)c(c2)-c2c(O)cc(O)cc21` 2 µg/mL

Answer with the recorded MIC for the compound listed here: `CC(=O)N[C@H]1[C@H](O[C@@H]2c3ccc(c(Cl)c3)Oc3cc4cc(c3O)Oc3ccc(cc3Cl)C[C@H]3NC(=O)[C@H](Nc5c(NCc6ccc(-c7ccccc7)cc6)c(=O)c5=O)c5ccc(O)c(c5)Oc5cc(O)cc(c5)[C@H](NC3=O)C(=O)N[C@H]4C(=O)N[C@H]3C(=O)N[C@@H]2C(=O)N[C@H](C(=O)O)c2cc(O)cc(O)c2-c2cc3ccc2O)O[C@H](CO)[C@@H](O)[C@@H]1O` 4 µg/mL

Answer with the recorded MIC for the compound listed here: `COC(=O)[C@H]1NC(=O)[C@H]2NC(=O)[C@H](NC(=O)[C@@H]3NC(=O)[C@H]4NC(=O)[C@@H](Cc5ccc(cc5)Oc5cc3cc(c5O)Oc3ccc(cc3)[C@H]2O)NC(=O)[C@H](Nc2c(NCc3ccc(-c5ccccc5)cc3)c(=O)c2=O)c2ccc(O)c(c2)Oc2cc(O)cc4c2)c2ccc(O)c(c2)-c2c(O)cc(O)cc21` 16 µg/mL

Answer with the recorded MIC for the compound listed here: `COC(=O)[C@H]1NC(=O)[C@H]2NC(=O)[C@H](NC(=O)[C@@H]3NC(=O)[C@H]4NC(=O)[C@@H](Cc5ccc(c(Cl)c5)Oc5cc3cc(c5O)Oc3ccc(cc3Cl)[C@H]2O[C@@H]2O[C@H](CO)[C@@H](O)[C@H](O)[C@H]2NC(C)=O)NC(=O)[C@H](Nc2c(OC)c(=O)c2=O)c2ccc(O)c(c2)Oc2cc(O)cc4c2)c2ccc(O)c(c2)-c2c(O)cc(O)cc21` 8 µg/mL
